Assay target: human A2B receptors (Homo sapiens, UniProt P29275)
Construct: expressed in transfected cells; host or cells: HEK-293
Sequence (P29275 whole entry): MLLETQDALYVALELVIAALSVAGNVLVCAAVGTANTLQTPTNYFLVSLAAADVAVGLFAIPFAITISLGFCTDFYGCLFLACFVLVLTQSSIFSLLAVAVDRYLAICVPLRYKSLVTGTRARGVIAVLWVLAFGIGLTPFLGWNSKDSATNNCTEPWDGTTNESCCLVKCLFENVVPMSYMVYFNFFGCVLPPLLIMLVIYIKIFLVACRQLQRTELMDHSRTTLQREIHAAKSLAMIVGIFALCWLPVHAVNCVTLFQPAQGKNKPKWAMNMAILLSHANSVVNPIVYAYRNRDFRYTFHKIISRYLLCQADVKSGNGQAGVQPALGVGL
Method summary: Binding at human A2B receptors expressed in HEK-293 cells vs [3H]ZM241385
Experimental parameters: rounded values given in text; read-out: Ki at human A2B receptors
Procedure: The plasmid was amplified in competent JM109 cells and plasmid DNA isolated using Wizard Megaprep columns (Promega Corp., Madison, WI). Colonies were selected by growth of cells in 0.6 mg/mL G418. Transfected cells were maintained in DMEM supplemented with Hams F12 nutrient mixture (1/1), 10% newborn calf serum, 2 mM glutamine, and containing 50 IU/mL penicillin, 50 μg/mL streptomycin, and 0.2 mg/mL Geneticin (G418, Boehringer Mannheim, Indianapolis, IN). […]
pKi: −log10 of the molar value.
Assay readout: pKi

Please review the entries below; each comes with its answer.
* CCCn1c(=O)c2[nH]c(-c3ccc(OCC(=O)NN4C(=O)C(C)=C(C)C4=O)cc3)nc2n(CCC)c1=O | 7.72
* CCCn1c(=O)c2[nH]c(-c3ccc(OCC(=O)NNC(=O)[C@H](CCC(=O)O)NC(=O)C(F)(F)F)cc3)nc2n(CCC)c1=O [Compound 24a] | 7.60
* CCCn1c(=O)c2[nH]c(-c3ccc(OCC(=O)NN4C(=O)C[C@H](NC(=O)C(F)(F)F)C4=O)cc3)nc2n(CCC)c1=O | 7.52

1: CCCn1c(=O)c2[nH]c(-c3ccc(OCC(=O)NN4C(=O)C(c5ccccc5)=C(c5ccccc5)C4=O)cc3)nc2n(CCC)c1=O
2: CCCn1c(=O)c2[nH]c(-c3ccc(OCC(=O)NNC(=O)CNC(=O)CNC(=O)OCc4ccccc4)cc3)nc2n(CCC)c1=O
Data request: Of the pair 1 and 2 , name the member with the lesser recorded pKi. Return value: the label identifying the chosen record.
Data returned: 1
(1: 7.55, 2: 7.96)

###

Assay target: human A1 receptors (Homo sapiens, UniProt P30542)
Sequence (P30542 1-326): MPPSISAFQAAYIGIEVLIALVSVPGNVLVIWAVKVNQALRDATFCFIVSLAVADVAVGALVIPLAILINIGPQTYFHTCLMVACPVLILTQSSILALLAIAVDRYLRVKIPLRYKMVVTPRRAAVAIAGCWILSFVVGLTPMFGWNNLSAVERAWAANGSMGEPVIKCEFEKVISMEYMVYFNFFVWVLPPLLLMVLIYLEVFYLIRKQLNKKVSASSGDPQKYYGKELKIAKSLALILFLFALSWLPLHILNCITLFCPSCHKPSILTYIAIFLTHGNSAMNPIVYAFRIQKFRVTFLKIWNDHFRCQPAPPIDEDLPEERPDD
Method summary: Binding at recombinant human A1 receptors expressed in HEK-293 cells vs [3H]CPX
Experimental parameters: recombinant human A1 in HEK-293 cells
pKi: −log10 of the molar value.
Assay readout: pKi

- CCCn1c(=O)c2[nH]c(-c3ccc(OCC(=O)NN4C(=O)C5CC=CCC5C4=O)cc3)nc2n(CCC)c1=O (stereo not shown) [Compound 18b]: 6.89
- CCCn1c(=O)c2[nH]c(-c3ccc(OCC(=O)NNC(=O)CCC(=O)O)cc3)nc2n(CCC)c1=O: 6.66

P: CCCn1c(=O)[nH]c(=O)c2[nH]c(-c3ccc(OCC(=O)NN4C(=O)C(C)=C(C)C4=O)cc3)nc21
Q: CCCn1c(=O)c2[nH]c(-c3ccc(OCC(=O)NN4C(=O)CC[C@H](NC(=O)C(F)(F)F)C4=O)cc3)nc2n(CCC)c1=O [Compound 24b]
Data request: Choose between P and Q : whose measured pKi value is numerically larger? Return value: the label identifying the chosen record.
Data returned: Q
